Source listed as patent US20220372014A1.

- Measured Target: UniProt P14174
- Sequence (P14174 whole entry): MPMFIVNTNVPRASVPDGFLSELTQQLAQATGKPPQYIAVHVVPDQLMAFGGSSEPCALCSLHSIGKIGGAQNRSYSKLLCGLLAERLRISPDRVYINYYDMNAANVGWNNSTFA
- Assay Remarks: Nuclease assay of Example 3 (MIF inhibitory activity, Table 4)
- Assay type: biochemical
- Design: concentration or dose not given beside the values
- Condition Details: nuclease assay of Example 3
Readout Name: (%) inhibition of MIF nuclease activity
Respond numerically; units are % and should not be typed.

// below: answered molecules
COc1cc(CC[C@H]2OC(=O)[C@@H]3CCCCN3C(=O)C(=O)C(C)(C)COC(=O)C=CCCN(C)C(=O)[C@@H]3CCCN3C(=O)[C@H](COC(C)(C)C)N(C)C(=O)C(c3ccccc3)NC(=O)[C@H](C)N(C)C(=O)COc3cccc2c3)cc(F)c1OC (stereo partly shown) ... 6.8
COc1ccc(CC[C@H]2OC(=O)[C@@H]3CCCCN3C(=O)C(=O)C(C)(C)COC(=O)C=CCCN(C)C(=O)[C@@H](C)NC(=O)[C@H](C(C)C)N(C)C(=O)[C@@H](Cc3ccccc3)NC(=O)[C@H](CC(C)C)N(C)C(=O)CCC(=O)Nc3cccc2c3)cc1OC ... 9.0
COc1ccc(CC[C@H]2OC(=O)[C@@H]3CCCCN3C(=O)C(=O)C(C)(C)COC(=O)C=CCCN(C)C(=O)[C@@H](C)NC(=O)[C@H](COC(C)(C)C)N(C)C(=O)C(c3ccccc3)NC(=O)[C@H](C)N(C)C(=O)COc3cccc2c3)cc1OC (stereo partly shown) ... 61.5

Let us move to another entry and its (%) inhibition of MIF nuclease activity.
Inquiry: Look at this molecule and give its reported (%) inhibition of MIF nuclease activity. COc1cccc(CC[C@H]2OC(=O)[C@@H]3CCCCN3C(=O)C(=O)C(C)(C)COC(=O)C=CCCN(C)C(=O)[C@@H]3CCCN3C(=O)[C@H](COC(C)(C)C)N(C)C(=O)C(c3ccccc3)NC(=O)[C@H](C)N(C)C(=O)COc3cccc2c3)c1 (stereo partly shown)
Reply text: 10.7
